- assay-comment: Thermal Gravimetric Analysis (TGA), temperature of 10 wt % loss (volatility)
- Assay type: physicochemical
- test-context: Temperature at which 10% wt. loss is observed during TGA analysis
metric: TGA T-10% (°C)

Cc1ccc(O)c(-n2nc3ccccc3n2)c1 [Tinuvin P ™, 2-(2H-benzotriazol-2-yl)-4-methyl-phenol]	205
Oc1c(-c2cccc(-n3nc4ccccc4n3)c2O)cccc1-n1nc2ccccc2n1 [COMPOUND 5]	383
CC(C)(C)CC(C)(C)c1cc(-c2cc(C(C)(C)CC(C)(C)C)cc(-n3nc4ccccc4n3)c2O)c(O)c(-n2nc3ccccc3n2)c1 [COMPOUND 1]	381
CC(C)(c1ccccc1)c1cc(-n2nc3ccccc3n2)c(O)c(C(C)(C)c2ccccc2)c1 [Tinuvin ®-234]	312
CC(C)(c1ccccc1)c1cc(-c2cc(C(C)(C)c3ccccc3)cc(-n3nc4ccccc4n3)c2O)c(O)c(-n2nc3ccccc3n2)c1 [COMPOUND 3]	377

A = CC(C)(C)CC(C)(C)c1cc(Cc2cc(C(C)(C)CC(C)(C)C)cc(-n3nc4ccccc4n3)c2O)c(O)c(-n2nc3ccccc3n2)c1 [LA-31 ®]
B = CC(C)(C)CC(C)(C)c1ccc(O)c(-n2nc3ccccc3n2)c1 [UV-5411]
Select the item with the higher value of TGA T-10% from the options A and B listed. Indicate your choice by writing its label. A
(A: 380 °C, B: 245 °C)
